Cited source for all entries: ChEMBL document CHEMBL5046240

Molecular target: Voltage-gated inwardly rectifying potassium channel KCNH2 (Homo sapiens, UniProt Q12809)
Sequence (Q12809 whole entry): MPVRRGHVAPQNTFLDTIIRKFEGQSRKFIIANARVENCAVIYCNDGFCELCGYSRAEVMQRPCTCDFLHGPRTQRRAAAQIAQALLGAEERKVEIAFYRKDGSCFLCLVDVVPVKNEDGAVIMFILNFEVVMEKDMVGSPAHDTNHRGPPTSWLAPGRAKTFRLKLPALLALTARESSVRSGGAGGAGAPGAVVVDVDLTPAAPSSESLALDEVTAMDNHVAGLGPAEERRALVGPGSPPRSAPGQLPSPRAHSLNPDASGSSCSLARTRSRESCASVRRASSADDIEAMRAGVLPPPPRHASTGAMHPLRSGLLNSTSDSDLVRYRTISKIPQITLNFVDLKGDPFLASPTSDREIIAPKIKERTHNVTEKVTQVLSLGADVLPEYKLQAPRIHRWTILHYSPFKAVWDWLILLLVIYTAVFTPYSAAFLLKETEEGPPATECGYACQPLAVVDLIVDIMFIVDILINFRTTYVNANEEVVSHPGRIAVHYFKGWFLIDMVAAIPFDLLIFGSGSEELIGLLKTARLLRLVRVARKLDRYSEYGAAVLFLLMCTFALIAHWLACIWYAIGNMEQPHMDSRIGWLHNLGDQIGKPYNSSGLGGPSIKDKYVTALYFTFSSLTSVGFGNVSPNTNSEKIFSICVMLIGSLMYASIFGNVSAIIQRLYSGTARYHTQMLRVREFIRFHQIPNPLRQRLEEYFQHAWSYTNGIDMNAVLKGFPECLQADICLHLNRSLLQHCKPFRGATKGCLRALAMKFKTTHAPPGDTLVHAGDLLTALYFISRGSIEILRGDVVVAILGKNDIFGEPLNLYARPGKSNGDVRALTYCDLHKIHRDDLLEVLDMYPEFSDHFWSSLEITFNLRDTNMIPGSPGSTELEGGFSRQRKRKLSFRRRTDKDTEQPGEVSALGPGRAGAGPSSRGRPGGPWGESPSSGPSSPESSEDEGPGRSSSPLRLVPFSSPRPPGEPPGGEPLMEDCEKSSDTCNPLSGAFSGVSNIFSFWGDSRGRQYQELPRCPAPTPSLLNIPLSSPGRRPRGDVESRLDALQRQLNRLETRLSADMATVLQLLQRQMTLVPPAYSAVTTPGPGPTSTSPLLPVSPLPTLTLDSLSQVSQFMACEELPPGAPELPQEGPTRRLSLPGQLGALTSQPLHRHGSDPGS
Experiment: Inhibition of hERG expressed in CHO cells at -80 mV holding potential measured after 4mins by automated patch-clamp assay

- mol_smiles: "Cc1ncc(-c2ccc3nc(NC(=O)C4CC4)sc3c2)cc1NC(=O)OC1CCOCC1"
  IC50: "> 30 µM"

###

Test: Cmax in Sprague-Dawley rat at 2 mg/kg, iv measured upto 24 hrs by LC-MS/MS analysis
Format: ADME, organism-based
Parameters: route intravenous, dose 2 mg/kg, time <=24
Details: in vivo

- mol_smiles: "Cc1ncc(-c2ccc3nc(NC(=O)C4CC4)sc3c2)cc1NC(=O)OC1CCOCC1"
  quantity_unit: "µg/mL"
  Cmax: 1.33
